Target Desc: human kinase Mps-1 (Homo sapiens)
Construct: N-terminally GST-tagged human full length recombinant Mps-1 kinase; GST (N)
Assay Method Text: Mps-1 kinase assay (TR-FRET)
Setup Conditions: GST-tagged human full length recombinant Mps-1; 10 μM ATP; 1 μM peptide substrate; 60 min at 22° C.
Experimental Endpoint: pIC50
Field pIC50 (float): negative decimal logarithm of the concentration in molar.

{"columns": ["Molecular String", "Target Desc", "Measured"],
 "data": [
  ["CC(C)CNc1nc(C2=CCOCC2)cn2c(-c3ccc(C(=O)NC4CC4)cc3)cnc12", "human kinase Mps-1 (Homo sapiens)", 8.85],
  ["CC(C)CNc1nc(Oc2ccccc2)cn2c(-c3ccc(C(=O)NC4CC4)cc3)cnc12", "human kinase Mps-1 (Homo sapiens)", 9.00],
  ["Cn1nccc1CNc1nc(-c2ccoc2)cn2c(-c3ccc(C(=O)NC4CC4)c(Cl)c3)cnc12", "human kinase Mps-1 (Homo sapiens)", 7.59],
  ["CC(C)CNc1nc(N2CCCCS2(=O)=O)cn2c(-c3ccc(C(=O)NC4CC4)cc3)cnc12", "human kinase Mps-1 (Homo sapiens)", 8.19],
  ["CC(C)CNc1nc(-c2ccncc2)cn2c(-c3ccc(C(=O)NC4CC4)cc3)cnc12", "human kinase Mps-1 (Homo sapiens)", 8.74]
]}

Give the reported value of pIC50 for this record: N#CCCNc1nc(-c2cccc(CC(N)=O)c2)cn2c(-c3ccc(C(=O)NC4CC4)cc3)cnc12 8.41

Return reported pIC50. Input compound: Cn1nccc1CNc1nc(-c2ccn[nH]2)cn2c(-c3ccc(C(=O)NC4CC4)c(Cl)c3)cnc12 7.37

Write down pIC50 measured for item C=C(C)CNc1nc(-c2ccccc2)cn2c(-c3ccc(C(=O)NC4CC4)cc3)cnc12 8.43

====

Target Desc: human kinase Mps-1 (Homo sapiens, UniProt P33981)
Construct: N-terminally GST-tagged human full length recombinant Mps-1 kinase; GST (N)
Sequence (P33981 whole entry): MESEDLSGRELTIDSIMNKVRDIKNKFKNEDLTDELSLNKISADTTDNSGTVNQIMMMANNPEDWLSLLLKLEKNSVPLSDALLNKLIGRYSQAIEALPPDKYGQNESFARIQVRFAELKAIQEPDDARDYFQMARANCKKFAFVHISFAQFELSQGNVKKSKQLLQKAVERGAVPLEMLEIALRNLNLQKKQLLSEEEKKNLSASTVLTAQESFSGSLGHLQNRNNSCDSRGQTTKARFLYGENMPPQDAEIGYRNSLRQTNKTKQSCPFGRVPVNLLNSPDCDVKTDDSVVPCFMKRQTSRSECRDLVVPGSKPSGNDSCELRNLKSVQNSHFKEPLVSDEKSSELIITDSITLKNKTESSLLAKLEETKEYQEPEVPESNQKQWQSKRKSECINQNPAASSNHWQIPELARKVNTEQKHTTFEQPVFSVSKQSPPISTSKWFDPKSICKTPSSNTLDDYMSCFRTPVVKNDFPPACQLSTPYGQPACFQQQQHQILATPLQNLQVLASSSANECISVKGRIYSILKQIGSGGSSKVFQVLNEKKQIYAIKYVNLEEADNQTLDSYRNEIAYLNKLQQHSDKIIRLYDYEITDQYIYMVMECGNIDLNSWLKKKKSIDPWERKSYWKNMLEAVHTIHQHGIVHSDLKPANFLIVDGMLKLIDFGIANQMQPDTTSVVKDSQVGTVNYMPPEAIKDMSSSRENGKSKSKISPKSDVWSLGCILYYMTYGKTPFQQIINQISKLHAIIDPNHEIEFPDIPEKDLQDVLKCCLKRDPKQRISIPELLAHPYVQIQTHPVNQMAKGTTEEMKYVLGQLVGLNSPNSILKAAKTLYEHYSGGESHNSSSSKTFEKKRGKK
Assay Method Text: Mps-1 kinase assay (TR-FRET)
Setup Conditions: GST-tagged human full length recombinant Mps-1; 10 μM ATP; 1 μM peptide substrate; 60 min at 22° C.
Hi! Just check whether IC50 is below 4 nM. Below gives met, equal or above gives not met.

Please state whether IC50 is below 4 nM for CC(C)CNc1nc(C2=CCNCC2)cn2c(-c3ccc(C(=O)NC4CC4)cc3)cnc12 met

Quick check: does Cc1cc(-c2cnc3c(NCC(C)(C)O)nc(Oc4ccccc4)cn23)ccc1C(=O)NC1CC1 have IC50 under 4 nM? met

Hello, is IC50 of the following compound strictly smaller than 4 nM? O=C(NC1CC1)c1ccc(-c2cnc3c(NCCCn4ccnc4)nc(-c4ccncc4)cn23)cc1 not met

# strict comparison: is reported IC50 < 4 nM? input = O=C(NC1CC1)c1ccc(-c2cnc3c(NCCCN4CCOCC4)nc(-c4ccncc4)cn23)cc1 not met

Dear colleague, could you confirm whether IC50 of O=C(NC1CC1)c1ccc(-c2cnc3c(NCC4CCCO4)nc(-c4ccoc4)cn23)cc1F (stereo not shown) falls below 4 nM? Thanks. not met

API: query returns whether the compound falls strictly under 4 nM in IC50. Query: O=C(NC1CC1)c1ccc(-c2cnc3c(NCC4CCCO4)nc(-c4ccncc4)cn23)cc1F (stereo not shown) not met

Here's an entry: CC(C)CNc1nc(-c2ccnc(Cl)c2)cn2c(-c3ccc(C(=O)NC4CC4)cc3)cnc12 . Is its IC50 below 4 nM? not met

Please indicate whether the reported IC50 of CC(C)CNc1nc(-c2cc3ccccc3o2)cn2c(-c3ccc(C(=O)NC4CC4)cc3)cnc12 is strictly below 4 nM. not met

Find out if reported IC50 for Cc1cc(-c2cnc3c(NCC(C)C)nc(C4=CCOCC4)cn23)ccc1C(=O)NC1CC1 is less than 4 nM not met

In plain terms, does CC(C)CNc1nc(-c2cncc(C(=O)NC(C)(C)C)c2)cn2c(-c3ccc(C(=O)NC4CC4)cc3)cnc12 come in under 4 nM for IC50? not met

Hello, is IC50 of the following compound strictly smaller than 4 nM? O=C(NC1CC1)c1ccc(-c2cnc3c(NCC4CCCO4)nc(-c4ccncc4)cn23)cc1Cl (stereo not shown) not met
